# assayed_target: human TAS1R2-I191V/TAS1R3-WT (Homo sapiens, UniProt Q7RTX0+Q8TE23, I191V)
# Construct: expressed in transfected cells; host or cells: HEK293T-Gα16gust44
# Sequence (Q8TE23 20-839 I191V): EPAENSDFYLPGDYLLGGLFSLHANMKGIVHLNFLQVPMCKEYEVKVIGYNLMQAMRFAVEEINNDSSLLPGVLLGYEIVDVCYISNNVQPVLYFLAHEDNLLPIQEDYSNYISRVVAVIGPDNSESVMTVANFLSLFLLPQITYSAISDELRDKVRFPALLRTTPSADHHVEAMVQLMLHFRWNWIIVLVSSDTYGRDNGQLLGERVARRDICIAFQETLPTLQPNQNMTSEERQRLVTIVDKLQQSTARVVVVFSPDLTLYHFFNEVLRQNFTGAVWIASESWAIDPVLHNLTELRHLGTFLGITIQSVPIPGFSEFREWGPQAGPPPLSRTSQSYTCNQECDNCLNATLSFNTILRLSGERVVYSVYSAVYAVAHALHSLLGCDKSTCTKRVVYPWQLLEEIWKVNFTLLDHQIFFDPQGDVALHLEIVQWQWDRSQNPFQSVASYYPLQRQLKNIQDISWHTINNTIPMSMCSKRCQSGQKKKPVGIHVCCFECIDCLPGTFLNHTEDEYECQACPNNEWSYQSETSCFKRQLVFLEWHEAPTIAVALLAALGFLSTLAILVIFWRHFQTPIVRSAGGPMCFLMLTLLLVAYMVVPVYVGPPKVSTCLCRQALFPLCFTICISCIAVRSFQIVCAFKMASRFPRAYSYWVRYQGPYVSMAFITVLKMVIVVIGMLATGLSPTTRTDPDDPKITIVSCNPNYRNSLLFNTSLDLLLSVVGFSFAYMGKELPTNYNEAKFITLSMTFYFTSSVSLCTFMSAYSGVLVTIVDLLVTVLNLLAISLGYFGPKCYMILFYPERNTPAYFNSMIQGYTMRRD
# Sequence (Q7RTX0 21-852): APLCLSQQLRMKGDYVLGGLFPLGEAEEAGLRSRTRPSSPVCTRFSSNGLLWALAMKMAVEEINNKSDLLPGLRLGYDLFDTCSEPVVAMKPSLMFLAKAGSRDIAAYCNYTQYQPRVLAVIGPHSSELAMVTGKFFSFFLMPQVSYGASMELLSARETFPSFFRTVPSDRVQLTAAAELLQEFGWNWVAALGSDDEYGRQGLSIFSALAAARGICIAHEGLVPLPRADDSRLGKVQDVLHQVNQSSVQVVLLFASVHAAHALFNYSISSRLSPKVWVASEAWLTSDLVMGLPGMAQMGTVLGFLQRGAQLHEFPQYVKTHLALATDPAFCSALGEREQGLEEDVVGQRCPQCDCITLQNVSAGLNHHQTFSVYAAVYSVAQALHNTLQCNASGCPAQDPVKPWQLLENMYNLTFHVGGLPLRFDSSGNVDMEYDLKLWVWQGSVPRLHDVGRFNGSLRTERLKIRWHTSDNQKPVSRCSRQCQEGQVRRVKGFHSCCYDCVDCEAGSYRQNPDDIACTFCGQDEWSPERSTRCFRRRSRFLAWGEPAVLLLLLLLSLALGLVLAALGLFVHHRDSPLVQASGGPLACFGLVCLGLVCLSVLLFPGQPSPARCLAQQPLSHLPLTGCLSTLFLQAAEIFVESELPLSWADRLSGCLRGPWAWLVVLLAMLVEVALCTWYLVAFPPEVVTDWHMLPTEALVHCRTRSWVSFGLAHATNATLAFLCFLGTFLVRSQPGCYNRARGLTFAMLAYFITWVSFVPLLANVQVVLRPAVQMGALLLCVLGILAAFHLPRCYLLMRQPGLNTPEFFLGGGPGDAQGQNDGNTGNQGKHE
# protocol_description: Calcium mobilisation assay, TAS1R2 variant I191V with TAS1R3-WT
# Assay type: cell-based
recorded_metric: R1 = Variant EC50/WT EC50
One number for each entry.

molecule: CC1=CC(=O)NS(=O)(=O)O1 [Acesulfame K, acesulfame K]
R1 = Variant EC50/WT EC50: 0.7

State recorded R1 = Variant EC50/WT EC50 for all listed molecules.
1. COC(=O)[C@H](Cc1ccccc1)NC(=O)[C@H](CC(=O)O)NCCC(C)(C)C [Neotame]
2. COc1ccc(CCC(=O)c2c(O)cc(O[C@@H]3O[C@H](CO)[C@@H](O)[C@H](O)[C@H]3O[C@@H]3O[C@@H](C)[C@H](O)[C@@H](O)[C@H]3O)cc2O)cc1O [NHDC, neohesperidin dihydrochalcone]
3. C=C1C[C@@]23CC[C@H]4[C@@](C)(CCC[C@@]4(C)C(=O)O[C@@H]4O[C@H](CO)[C@@H](O)[C@H](O[C@@H]5O[C@H](CO)[C@@H](O)[C@H](O)[C@H]5O)[C@H]4O[C@@H]4O[C@H](CO)[C@@H](O)[C@H](O)[C@H]4O)[C@@H]2CC[C@]1(O[C@@H]1O[C@H](CO)[C@@H](O)[C@H](O[C@@H]2O[C@H](CO)[C@@H](O)[C@H](O)[C@H]2O)[C@H]1O[C@@H]1O[C@H](CO)[C@@H](O)[C@H](O)[C@H]1O)C3 [Rebaudioside M, rebaudioside M]

Resp:
1: 1.0; 2: 1.4; 3: 1.2

====

# assayed_target: human TAS1R2-WT/TAS1R3-T716M (Homo sapiens, UniProt Q7RTX0+Q8TE23, T716M)
# Construct: expressed in transfected cells; host or cells: HEK293T stably expressing Gα16gust44
# Sequence (Q8TE23 20-839, stated change not applied): as the sequence (Q8TE23 20-839 I191V) above, with V172I counted along it
# Sequence (Q7RTX0 21-852 T716M): as the sequence (Q7RTX0 21-852) above, with T696M counted along it
# protocol_description: Calcium mobilisation assay, TAS1R2-WT with TAS1R3 variant T716M
# Assay type: cell-based
# condition_description: read-out: EC50
Exercise: for every item that follows, state its recorded EC50.
Give bare numbers, in µM.

Consider the worked cases shown below.
compound: CC1=CC(=O)NS(=O)(=O)O1
EC50 [µM]: 739
//
compound: COC(=O)[C@H](Cc1ccccc1)NC(=O)[C@H](CC(=O)O)NCCC(C)(C)C
EC50 [µM]: 1.3
//
compound: C=C(C)[C@@H]1CC=C(/C=N/O)CC1
EC50 [µM]: 21.6

// moving on: another record for EC50
Req: I am curious: what EC50 value has been reported for COc1ccc(CCC(=O)c2c(O)cc(O[C@@H]3O[C@H](CO)[C@@H](O)[C@H](O)[C@H]3O[C@@H]3O[C@@H](C)[C@H](O)[C@@H](O)[C@H]3O)cc2O)cc1O [NHDC, neohesperidin dihydrochalcone] ?
Resp: 55.4

====

Exercise: for every item that follows, state its recorded EC50.
# assayed_target: human TAS1R2-K689Q/TAS1R3-WT (Homo sapiens, UniProt Q7RTX0+Q8TE23, K689Q)
# Sequence (Q8TE23 20-839 K689Q): as the sequence (Q8TE23 20-839 I191V) above, with V172I, K670Q counted along it
# Sequence (Q7RTX0 21-852): as the sequence (Q7RTX0 21-852) above
# protocol_description: Calcium mobilisation assay, TAS1R2 variant K689Q with TAS1R3-WT
# condition_description: "-": no activation, "nd": not determined
One number for each entry, in µM.

compound: C=C(C)[C@@H]1CC=C(/C=N/O)CC1
endpoint_unit: µM
EC50: 132
//
compound: O=S(=O)(O)NC1CCCCC1 [Cyclamate, cyclamate]
endpoint_unit: µM
EC50: 5010

// moving on: another record for EC50
Req: I am curious: what EC50 value has been reported for C=C1C[C@@]23CC[C@H]4[C@@](C)(CCC[C@@]4(C)C(=O)O[C@@H]4O[C@H](CO)[C@@H](O)[C@H](O[C@@H]5O[C@H](CO)[C@@H](O)[C@H](O)[C@H]5O)[C@H]4O[C@@H]4O[C@H](CO)[C@@H](O)[C@H](O)[C@H]4O)[C@@H]2CC[C@]1(O[C@@H]1O[C@H](CO)[C@@H](O)[C@H](O[C@@H]2O[C@H](CO)[C@@H](O)[C@H](O)[C@H]2O)[C@H]1O[C@@H]1O[C@H](CO)[C@@H](O)[C@H](O)[C@H]1O)C3 [Rebaudioside M, rebaudioside M] ?
Resp: 75.8
